- EXPERIMENT_DESCRIPTION: Clearance in mouse at 3 mg/kg, iv and 10 mg/kg, po
- Format: ADME, organism-based
- DETAILS: in vivo
ASSAY_METRIC: clearance (mL/min/kg)

entry_smiles=CC(C)C[C@H]1CN(c2ccc(C(F)(F)F)c(C(=O)c3cccnc3N)n2)CCN1 recorded_measurement=203

----------
- TARGET_OF_ASSAY: Protein kinase C beta type (Homo sapiens, UniProt P05771)
- Sequence (P05771 whole entry): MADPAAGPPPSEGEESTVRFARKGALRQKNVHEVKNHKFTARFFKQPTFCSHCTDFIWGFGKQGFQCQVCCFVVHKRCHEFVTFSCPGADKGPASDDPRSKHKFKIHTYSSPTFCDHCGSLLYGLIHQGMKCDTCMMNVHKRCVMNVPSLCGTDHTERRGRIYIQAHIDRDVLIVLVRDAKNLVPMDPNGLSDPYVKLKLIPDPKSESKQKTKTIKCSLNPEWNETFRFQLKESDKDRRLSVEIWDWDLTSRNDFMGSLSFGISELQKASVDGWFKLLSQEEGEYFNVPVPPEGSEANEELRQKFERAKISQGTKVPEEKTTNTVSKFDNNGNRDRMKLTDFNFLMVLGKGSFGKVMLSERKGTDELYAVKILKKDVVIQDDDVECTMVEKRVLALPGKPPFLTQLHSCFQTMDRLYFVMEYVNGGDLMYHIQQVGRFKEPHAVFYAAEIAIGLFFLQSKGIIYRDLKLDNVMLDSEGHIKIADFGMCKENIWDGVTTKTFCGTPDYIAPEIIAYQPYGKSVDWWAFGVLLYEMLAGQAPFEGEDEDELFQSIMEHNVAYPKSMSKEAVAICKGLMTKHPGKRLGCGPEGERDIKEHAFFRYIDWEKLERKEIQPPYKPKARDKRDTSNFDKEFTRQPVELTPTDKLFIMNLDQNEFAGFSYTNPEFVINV
pKi: −log10 of the molar value.
ASSAY_METRIC: pKi

entry_smiles=CC(C)C[C@H]1CN(c2ccc(C(F)(F)F)c(C(=O)c3cccnc3N)n2)CCN1 target_of_assay="Protein kinase C beta type (Homo sapiens, UniProt P05771)" assay_metric=pKi recorded_measurement=6.59

----------
- TARGET_OF_ASSAY: Receptor-type tyrosine-protein kinase FLT3 (Homo sapiens, UniProt P36888)
- Sequence (P36888 whole entry): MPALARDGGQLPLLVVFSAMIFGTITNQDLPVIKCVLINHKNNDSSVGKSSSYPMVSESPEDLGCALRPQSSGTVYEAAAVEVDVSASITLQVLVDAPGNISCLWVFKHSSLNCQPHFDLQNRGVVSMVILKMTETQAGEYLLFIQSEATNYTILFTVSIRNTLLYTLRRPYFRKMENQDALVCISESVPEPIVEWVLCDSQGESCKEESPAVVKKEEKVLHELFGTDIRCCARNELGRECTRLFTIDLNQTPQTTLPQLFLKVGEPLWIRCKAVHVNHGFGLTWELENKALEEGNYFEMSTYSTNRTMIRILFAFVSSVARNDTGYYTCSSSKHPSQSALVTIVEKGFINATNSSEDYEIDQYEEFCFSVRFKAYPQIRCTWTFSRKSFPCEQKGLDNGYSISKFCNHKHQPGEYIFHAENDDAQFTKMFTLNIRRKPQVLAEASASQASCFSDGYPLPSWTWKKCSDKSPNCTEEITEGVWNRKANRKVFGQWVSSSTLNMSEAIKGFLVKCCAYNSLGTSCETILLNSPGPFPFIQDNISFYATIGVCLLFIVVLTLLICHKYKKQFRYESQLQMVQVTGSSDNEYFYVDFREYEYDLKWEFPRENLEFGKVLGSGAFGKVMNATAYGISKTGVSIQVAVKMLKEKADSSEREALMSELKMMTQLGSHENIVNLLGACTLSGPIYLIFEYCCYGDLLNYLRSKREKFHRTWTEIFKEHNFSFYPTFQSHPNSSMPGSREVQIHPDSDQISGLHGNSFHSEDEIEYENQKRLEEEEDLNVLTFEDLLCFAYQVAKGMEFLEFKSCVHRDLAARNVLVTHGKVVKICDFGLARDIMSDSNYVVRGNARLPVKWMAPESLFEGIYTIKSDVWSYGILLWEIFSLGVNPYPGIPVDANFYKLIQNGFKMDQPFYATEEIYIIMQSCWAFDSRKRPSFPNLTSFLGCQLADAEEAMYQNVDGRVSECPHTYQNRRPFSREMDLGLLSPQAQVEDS
pKi: −log10 of the molar value.
ASSAY_METRIC: pKi

entry_smiles=CC(C)C[C@H]1CN(c2ccc(C(F)(F)F)c(C(=O)c3cccnc3N)n2)CCN1 assay_metric=pKi recorded_measurement=6.24

----------
- TARGET_OF_ASSAY: Tyrosine-protein kinase Fyn (Homo sapiens)
- Sequence (P06241 whole entry): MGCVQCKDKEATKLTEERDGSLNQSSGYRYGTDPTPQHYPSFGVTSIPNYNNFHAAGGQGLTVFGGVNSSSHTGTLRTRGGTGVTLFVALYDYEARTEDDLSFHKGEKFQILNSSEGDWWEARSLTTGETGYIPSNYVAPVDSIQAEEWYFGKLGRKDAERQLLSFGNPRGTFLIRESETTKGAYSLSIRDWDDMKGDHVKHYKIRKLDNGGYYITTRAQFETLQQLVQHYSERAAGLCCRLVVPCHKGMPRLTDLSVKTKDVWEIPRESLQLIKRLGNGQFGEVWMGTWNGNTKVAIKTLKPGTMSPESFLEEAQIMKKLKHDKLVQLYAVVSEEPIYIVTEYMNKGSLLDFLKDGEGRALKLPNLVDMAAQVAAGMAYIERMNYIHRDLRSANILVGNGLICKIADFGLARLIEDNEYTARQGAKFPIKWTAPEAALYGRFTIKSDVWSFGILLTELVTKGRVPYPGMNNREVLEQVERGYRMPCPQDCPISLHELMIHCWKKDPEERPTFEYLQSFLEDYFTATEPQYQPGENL
ASSAY_METRIC: IC50

entry_smiles=CC(C)C[C@H]1CN(c2ccc(C(F)(F)F)c(C(=O)c3cccnc3N)n2)CCN1 assay_metric=IC50 recorded_measurement="> 2 µM"
